# System: S. aureus RN4220
# Method summary: growth inhibition call (relative growth <= 0.2)
# Condition description: 50 µM
Hit rate of the full screen: of about 39,000 compounds, about 500 (1.3%) were called active. The sample holds actives, similar compounds and a random draw of the others, so the mix is not that of the screen.

| Compound | growth inhibition call |
| --- | --- |
| C[C@H](CO)N1C[C@H](C)[C@@H](CN(C)C(=O)Nc2ccc(C(F)(F)F)cc2)Oc2c(NC(=O)Nc3ccccc3)cccc2C1=O | inactive |
| COc1ccc(S(=O)(=O)Nc2cccc3c2O[C@@H](CN(C)S(=O)(=O)c2cn(C)cn2)[C@@H](C)CN([C@H](C)CO)C3=O)cc1 | inactive |
| Cc1cc(OC(=O)c2c(C)cc(O)cc2O)cc(O)c1C(=O)O | inactive |
| C[C@H]1CN([C@@H](C)CO)C(=O)c2cc(NC(=O)Cn3cnnn3)ccc2O[C@H]1CN(C)Cc1ccc(Cl)c(Cl)c1 | inactive |
| C=CCOC(=O)[C@@H]1[C@H]2C(=O)O[C@H](c3ccccc3)[C@H](c3ccccc3)N2[C@H](c2ccc(OCCOC(=O)[C@@H]3C[C@@H]4C(=O)N[C@@H](Cc5ccccc5)C(=O)N4[C@@H]3c3ccc(O)cc3)cc2)[C@@]12C(=O)Nc1ccccc12 | inactive |
| Cc1c2oc3c(C)ccc(C(=O)N[C@@H]4C(=O)N[C@H](C(C)C)C(=O)N5CCC[C@H]5C(=O)N(C)CC(=O)N(C)[C@@H](C(C)C)C(=O)O[C@@H]4C)c3nc-2c(C(=O)N[C@@H]2C(=O)N[C@H](C(C)C)C(=O)N3CCC[C@H]3C(=O)N(C)CC(=O)N(C)[C@@H](C(C)C)C(=O)O[C@@H]2C)c(N)c1=O | inactive |
| Cc1noc(C)c1NC(=O)N(C)C[C@@H]1OCCCC[C@@H](C)Oc2ccc(NC(=O)Nc3ccc(F)cc3)cc2C(=O)N([C@@H](C)CO)C[C@H]1C | inactive |
| C[C@H](CO)N1C[C@H](C)[C@H](CN(C)C(=O)Nc2ccccc2)Oc2c(NC(=O)Nc3ccc(C(F)(F)F)cc3)cccc2C1=O | inactive |
| C[C@H]1CN([C@@H](C)CO)C(=O)c2cccc(NS(=O)(=O)c3ccc(F)cc3)c2O[C@H]1CN(C)Cc1ccc(Cl)c(Cl)c1 | inactive |
| Cc1noc(C)c1NC(=O)Nc1ccc2c(c1)C(=O)N([C@H](C)CO)C[C@@H](C)[C@H](CN(C)S(=O)(=O)c1ccc(Cl)cc1)OCCCC[C@@H](C)O2 | inactive |
| C[C@@H]1CN([C@H](C)CO)C(=O)c2cccc(NC(=O)Nc3ccc(C(F)(F)F)cc3)c2O[C@@H]1CN(C)C(=O)Nc1cccc2ccccc12 | inactive |
| C[C@H](CO)N1C[C@H](C)[C@@H](CN(C)Cc2ccc(C(F)(F)F)cc2)Oc2ccc(NC(=O)Nc3ccc(F)cc3)cc2CC1=O | inactive |
| COc1cc(C)c(C(=O)Oc2cc(C)c(C(=O)O)c(O)c2)c(O)c1 | inactive |
| Cc1c2oc3c(C)ccc(C(=O)N[C@@H]4C(=O)N[C@@H](C(C)C)C(=O)N5CCC[C@H]5C(=O)N(C)CC(=O)N(C)[C@@H](C(C)C)C(=O)O[C@@H]4C)c3nc-2c(C(=O)N[C@@H]2C(=O)N[C@@H](C(C)C)C(=O)N3CCC[C@H]3C(=O)N(C)CC(=O)N(C)[C@@H](C(C)C)C(=O)O[C@@H]2C)c(N)c1=O | active |
| O=C(C[C@H]1CC[C@H]2[C@@H](COC[C@H](O)CN2S(=O)(=O)c2ccccc2)O1)N1CCOCC1 | inactive |
| C[C@H](CO)N1C[C@H](C)[C@@H](CN(C)C(=O)Nc2cccc3ccccc23)Oc2c(NC(=O)Nc3ccc(C(F)(F)F)cc3)cccc2C1=O | active |
| Cc1ccccc1S(=O)(=O)N1[C@@H]2Cn3c(cccc3=O)[C@H]1[C@@H](C(=O)N1CCOCC1)[C@@H]2CO | inactive |
| C[C@@H](O[C@H]1OCCN(Cc2n[nH]nc2CN(C)C)[C@H]1c1ccc(F)cc1)c1cc(C(F)(F)F)cc(C(F)(F)F)c1 | active |
| C[C@@H]1CN([C@@H](C)CO)C(=O)c2cc(NC(=O)c3ccccc3)ccc2O[C@@H](C)CCCCO[C@H]1CN(C)Cc1ccc2c(c1)OCO2 | inactive |
| Cc1c2oc3c(C)ccc(C(=O)OC(C)C4NC(=O)C(C(C)C)N(C)C(=O)CN(C)C(=O)C5CCCN5C(=O)C(C(C)C)NC4=O)c3nc-2c(C(=O)OC(C)C2NC(=O)C(C(C)C)N(C)C(=O)CN(C)C(=O)C3CCCN3C(=O)C(C(C)C)NC2=O)c(N)c1=O (stereo not given) | active |
| COc1cccc(NC(=O)N[C@@H]2CC[C@@H](CC(=O)N3CCN(C)CC3)O[C@@H]2CO)c1 | inactive |
| C[C@@H]1CN([C@H](C)CO)C(=O)Cc2cc(NC(=O)Cn3cnnn3)ccc2O[C@@H]1CN(C)S(=O)(=O)c1ccccc1 | inactive |
| CCCCOC(=O)[C@@H](N)CCC(=O)O | inactive |
| C[C@H]1CN([C@@H](C)CO)C(=O)c2cc(NC(=O)Nc3ccc(C(F)(F)F)cc3)ccc2O[C@H]1CN(C)Cc1ccc(C(=O)O)cc1 | inactive |
| CC(OC1OCCN(C(C)c2nc(=O)[nH][nH]2)C1c1ccc(F)cc1)c1cc(C(F)(F)F)cc(C(F)(F)F)c1 (stereo not given) | inactive |

###

# Test system: S. aureus RN4220
# Method summary: growth inhibition call (relative growth <= 0.2)
# Condition description: 50 µM
Out of some 39,000 compounds screened, about 500 (1.3%) were called active. The entries come from a sample that favours actives as a whole.
Labels: class 1 for active, class 0 for inactive

| Compound | Test system | Assigned class |
| --- | --- | --- |
| CCOc1nc2cccc(C(=O)O)c2n1Cc1ccc(-c2ccccc2-c2nnn[nH]2)cc1 | S. aureus RN4220 | class 0 |
| C[C@@H]1CCCCO[C@H](CN(C)C(=O)Nc2ccc(C(F)(F)F)cc2)[C@@H](C)CN([C@H](C)CO)C(=O)c2cc(NC(=O)Cc3ccccc3)ccc2O1 | S. aureus RN4220 | class 0 |
| CC[C@@H](C)NCCCCOc1ccc(Cl)cc1C(C)(C)C | S. aureus RN4220 | class 1 |
| O=C(O)c1c(Br)c(Br)c(Br)c(Br)c1-c1c2ccc(=O)cc-2oc2cc(O)ccc12 | S. aureus RN4220 | class 1 |
| CCOc1nc2cccc(C(=O)OC(C)OC(=O)OC3CCCCC3)c2n1Cc1ccc(-c2ccccc2-c2nnn[nH]2)cc1 (stereo not drawn) | S. aureus RN4220 | class 0 |
| COc1ccc2cc(-c3cc(-c4cc(Cl)cc(Cl)c4)nn3[C@@H](C)c3ccc(C(=O)NCCC(=O)O)cc3)ccc2c1 | S. aureus RN4220 | class 0 |
| CCOC(=O)CSc1nnc2c3sc4nc(N5CCOCC5)c5c(c4c3ncn12)CC(C)(C)OC5 | S. aureus RN4220 | class 0 |
| Cc1cc(O[C@@H](CCC(F)(F)F)c2ccc(C(=O)NCCC(=O)O)cc2)cc(C)c1-c1ccc(C(C)(C)C)cc1 | S. aureus RN4220 | class 1 |

###

# System: S. aureus RN4220
# Method summary: growth inhibition call (relative growth <= 0.2)
# Condition description: 50 µM
The campaign covered roughly 39,000 compounds. About 500 (1.3%) were called active. For the sample, actives were picked, then their nearest neighbours and some compounds at random.

| Molecule | growth inhibition call |
| --- | --- |
| O=C(NC(CO)C(O)c1ccc([N+](=O)[O-])cc1)C(Cl)Cl (stereo not given) | active |
| O=C(C[C@H]1CC[C@@H]2[C@H](COC[C@@H](O)CN2C(=O)Nc2cccc(F)c2)O1)NCCCN1CCOCC1 | inactive |
| O=C(C[C@@H]1CC[C@@H]2[C@H](COC[C@@H](O)CN2C(=O)Nc2cccc(Cl)c2)O1)NCCCN1CCOCC1 | active |
| CS(=O)(=O)c1ccc(C(O)C(CO)NC(=O)C(Cl)Cl)cc1 (stereo not given) | inactive |
| C#CCN([C@H](/C=C/C1CC1)[C@@H](O)Cc1ccccc1)[C@@H](Cc1ccc(-n2cc(C(=O)NO)nn2)cc1)C(=O)OC | inactive |
| CC1(C)S[C@H]2[C@@H](NC(=O)[C@@H](NC(=O)N3CCN(S(C)(=O)=O)C3=O)c3ccccc3)C(=O)N2[C@@H]1C(=O)O | active |
| C[C@@H]1CCCCO[C@H](CN(C)C(=O)Nc2cccc3ccccc23)[C@H](C)CN([C@@H](C)CO)C(=O)c2cc(NS(=O)(=O)c3ccc(Cl)cc3)ccc2O1 | inactive |
| C[C@@H]1CN([C@@H](C)CO)C(=O)Cc2cc(NC(=O)Cn3cnnn3)ccc2O[C@H]1CN(C)S(=O)(=O)c1cccs1 | inactive |
| CO[C@@H]1CN(C)C(=O)c2cc(NC(=O)CC(F)(F)F)ccc2OC[C@H](C)N(C(=O)C2CCOCC2)C[C@@H]1C | inactive |
| CCCCCCCCCCCCCCCC(=O)OC[C@H](NC(=O)C(Cl)Cl)[C@H](O)c1ccc([N+](=O)[O-])cc1 | inactive |
| CC(C)NC(=O)N(C)C[C@H]1Oc2ccc(NC(=O)Nc3ccc4c(c3)OCO4)cc2CC(=O)N([C@@H](C)CO)C[C@H]1C | inactive |
| C[C@@H]1CCCCO[C@H](CN(C)C(=O)Nc2ccc3c(c2)OCO3)[C@@H](C)CN([C@H](C)CO)C(=O)c2cc(NC(=O)Nc3ccccc3)ccc2O1 | inactive |
| CC(=O)OC1(C(C)=O)CCC2C3C=C(C)C4=CC(=O)CCC4(C)C3CCC21C (stereo not given) | inactive |
| CC(=O)OC1(C(C)=O)CCC2C3CC(C)C4=CC(=O)CCC4(C)C3CCC21C (stereo not given) | inactive |
| CC(=O)O[C@H]1C[C@@]2(C)[C@@H](C[C@@H](O)[C@H]3[C@@]4(C)CC[C@@H](O)[C@@H](C)[C@@H]4CC[C@@]32C)/C1=C(\CCC=C(C)C)C(=O)O | active |

Values were extracted from the antibiotic and cytotoxicity screens of Wong et al. (2023).
